Reported fold repression is given for each of the following binders.
Target: T1, ECF01_3473
T1 chain: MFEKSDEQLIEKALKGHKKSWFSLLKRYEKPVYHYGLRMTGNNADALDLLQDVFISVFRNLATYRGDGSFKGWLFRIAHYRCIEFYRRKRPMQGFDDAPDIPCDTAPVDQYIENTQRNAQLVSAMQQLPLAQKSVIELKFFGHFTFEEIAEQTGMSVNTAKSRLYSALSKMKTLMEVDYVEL

{"binder": "AS15_524 (protein) MNFGVEDMIEHVPMEDKRKGAAALDEARLRQQAIGVKLRQMFDEVVNEPVPDEFLAILRKAERPAGGE", "fold repression": 9.89}
{"binder": "AS14_1324 (protein) MSGSRPEPEGHLAEQHLGDRLSALVDGELGHDARERVLAHVATCPKCKAEVDAQRRLKNVFAEAAPPAPSESFLARLQGLPGGGDSDGGGSPFSGLPGGFGASAASGVFGPRRDERFEFDYVPAGSHTPVLPSATSGRGFRIHEVGRHESDRSASRGLRFAFAAAGAVSLAAIALGGVTLGTPDTTTEARGSGSGSNVTPLRTPGSAAATGSESQRRRTAGPLLGQGQRALGDLPVASTTASAPLLPGMPAPAGGDARQQAVRALTTPVTAGAAAMSPLIRPLEAVPPLSLSSWSAAPEVRPPGLLAAPDPAPSPYPAASPAASSSPLR", "fold repression": 8.34}
{"binder": "AS33_423 (protein) MMAMSNTMPDPREPGDVEALLPWYAAGTLNARDARRVADALDRDPALARQYAVILEEYASTIELNESLGAPSSRAMQKLFAAIDAEPARAPGAGQGLGARFAGFFAGLSPKALAWSASVAGLALLLQAGLIGALLTWPHAAPVQTAAYQPQREVARAPASSPAPATVSPPAAAMADRAADAGKSTPPMVMAERSGGPVVRSLAPQSGPRVLVKFAPEARASEIAALLDQYNAVVVDSSRGGLFRLQFGTQSLSKQDQETLIGRLQKEPVVSVVLSAP", "fold repression": 3.36}
